Target: androgen receptor (AR) splicing variant AR-v7 (Homo sapiens)
Construct: The degradation activity of compounds on AR-v7 in 22RV1 cells; host or cells: 22RV1 cells
Assay: Degradation activity on androgen receptor splicing variant AR-v7 in 22RV1 cells (ELISA)
Assay type: cell-based
Conditions: AR-v7 degradation in 22RV1 cells, 48 h, class symbols
I'd appreciate it if you could supply DC50 values for the items below.

CC(C)(c1ccc(OCCCNc2ccc3c(c2)C(=O)N(C2CCC(=O)NC2=O)C3=O)cc1)c1ccc(OCc2nc(C(=O)N3CCC3)no2)cc1 (stereo not shown) | 101 to 1000 nM

Quick request: DC50 for each listed item, please.
1. CC(C)(c1ccc(OCc2ccnc(-c3cn[nH]c3)n2)cc1)c1ccc(O[C@H]2C[C@@H](Nc3ccc4c(c3)C(=O)N(C3CCC(=O)NC3=O)C4=O)C2)cc1 (stereo partly shown)
2. CC(C)(c1ccc(OCCCNc2ccc3c(c2)C(=O)N(C2CCC(=O)NC2=O)C3=O)cc1)c1ccc(OCc2ccnc(-n3nccn3)n2)cc1 (stereo not shown)
3. CC(C)(c1ccc(OCc2ccnc(N3CC4(COC4)C3)n2)cc1)c1ccc(O[C@H]2C[C@@H](Nc3cc4c(cc3F)C(=O)N(C3CCC(=O)NC3=O)C4=O)C2)cc1 (stereo partly shown)
4. C[C@@H]1CN(C)[C@@H](C)CN1c1nccc(COc2ccc(C(C)(C)c3ccc(O[C@H]4C[C@@H](Nc5ccc6c(c5)C(=O)N(C5CCC(=O)NC5=O)C6=O)C4)cc3)cc2)n1 (stereo partly shown)
5. CC(O)c1nccc(COc2ccc(C(C)(C)c3ccc(OCCCNc4ccc5c(c4)C(=O)N(C4CCC(=O)NC4=O)C5=O)cc3)cc2)n1 (stereo not shown)

1. < 10 nM
2. 11 to 100 nM
3. 11 to 100 nM
4. 11 to 100 nM
5. 11 to 100 nM

---

Target: androgen receptor (AR) splicing variant AR-v7 (Homo sapiens, UniProt P10275)
Construct: The degradation activity of compounds on AR-v7 in 22RV1 cells; host or cells: 22RV1 cells
Sequence (P10275 1-644 isoform P10275-3): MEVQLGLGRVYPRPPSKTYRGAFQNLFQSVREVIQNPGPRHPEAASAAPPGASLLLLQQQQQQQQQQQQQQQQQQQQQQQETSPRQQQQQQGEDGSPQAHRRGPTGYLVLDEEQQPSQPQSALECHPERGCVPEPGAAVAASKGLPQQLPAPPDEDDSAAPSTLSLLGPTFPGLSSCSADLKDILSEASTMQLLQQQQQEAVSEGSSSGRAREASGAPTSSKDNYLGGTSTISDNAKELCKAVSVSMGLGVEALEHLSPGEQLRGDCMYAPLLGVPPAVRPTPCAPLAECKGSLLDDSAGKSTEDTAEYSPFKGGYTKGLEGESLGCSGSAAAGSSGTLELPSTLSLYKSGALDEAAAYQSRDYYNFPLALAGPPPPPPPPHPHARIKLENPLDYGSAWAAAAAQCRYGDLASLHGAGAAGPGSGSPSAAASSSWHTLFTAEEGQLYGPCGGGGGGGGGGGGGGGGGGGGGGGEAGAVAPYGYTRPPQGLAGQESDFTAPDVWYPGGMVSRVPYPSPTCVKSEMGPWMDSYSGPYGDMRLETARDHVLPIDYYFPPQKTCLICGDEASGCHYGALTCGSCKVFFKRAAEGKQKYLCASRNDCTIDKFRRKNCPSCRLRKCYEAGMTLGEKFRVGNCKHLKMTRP
Experiment: Degradation activity on androgen receptor splicing variant AR-v7 in 22RV1 cells (ELISA)
Format: cell-based
Settings: AR-v7 degradation in 22RV1 cells, 48 h, class symbols
Please respond with reported DC50 for every item in the list.

Would you please look over these solved cases?
Cc1nnc(-c2ccnc(Oc3ccc(C(C)(C)c4ccc(O[C@H]5C[C@H](Nc6ccc7c(c6)C(=O)N(C6CCC(=O)NC6=O)C7=O)C5)cc4)cc3)n2)o1 (stereo partly drawn) [Example 171] | 11 to 100 nM
CC(O)c1ncc(Oc2ccc(C(C)(C)c3ccc(OC[C@@H]4CCN4c4ccc5c(c4)C(=O)N(C4CCC(=O)NC4=O)C5=O)cc3)cc2)cn1 (stereo partly drawn) [Example 340] | 11 to 100 nM
CN1CCN(c2nccc(COc3ccc(C(C)(C)c4ccc(OC5CC(Nc6ccc7c(c6)C(=O)N(C6CCC(=O)NC6=O)C7=O)C5)cc4)cc3)n2)CC1 (stereo not drawn) [Example 393] | 11 to 100 nM

Could you tell me DC50 for each of these molecules? They are listed below.
1. CC1(C)CN(c2nccc(COc3ccc(C(C)(C)c4ccc(O[C@H]5C[C@@H](Nc6ccc7c(c6)C(=O)N(C6CCC(=O)NC6=O)C7=O)C5)cc4)cc3)n2)CCN1 (stereo partly drawn) [Example 458]
2. CNC(=O)c1ncc(Oc2ccc(C(C)(C)c3ccc(O[C@H]4C[C@H](Nc5ccc6c(c5)C(=O)N(C5CCC(=O)NC5=O)C6=O)C4)cc3)cc2)cn1 (stereo partly drawn) [Example 432]

1: 11 to 100 nM; 2: < 10 nM

Return reported DC50. Input molecule: CC(C)(c1ccc(CN2CC(Nc3ccc4c(c3)C(=O)N(C3CCC(=O)NC3=O)C4=O)C2)cc1)c1ccc(OCc2ccnc(N3CC4(COC4)C3)n2)cc1 (stereo not drawn) [Example 502]
< 10 nM

---

Please respond with reported DC50 for every item in the list.
Molecular target: androgen receptor (AR) splicing variant AR-v7 (Homo sapiens, UniProt P10275)
Construct: The degradation activity of compounds on AR-v7 in 22RV1 cells; host or cells: 22RV1 cells
Assay: Degradation activity on androgen receptor splicing variant AR-v7 in 22RV1 cells (ELISA)
Type: cell-based
Details: AR-v7 degradation in 22RV1 cells, 48 h, class symbols

Worked cases, answers included:
CC(C)(c1ccc(O[C@H]2C[C@H](Nc3ccc4c(c3)C(=O)N(C3CCC(=O)NC3=O)C4=O)C2)cc1)c1ccc(N2CCc3nc(N4CC5(COC5)C4)ncc3C2)cc1 (stereo partly drawn) | < 10 nM
CC(C)(c1ccc(OCc2ccnc(N3CCC4(CC3)COC4)n2)cc1)c1ccc(O[C@H]2C[C@@H](Nc3ccc4c(c3)C(=O)N(C3CCC(=O)NC3=O)C4=O)C2)cc1 (stereo partly drawn) | 11 to 100 nM
CC(C)(c1ccc(OCCCNc2ccc3c(c2)C(=O)N(C2CCC(=O)NC2=O)C3=O)cc1)c1ccc(OCc2ccnc(NS(C)(=O)=O)n2)cc1 (stereo not drawn) | 1000 to 5000 nM
CC(COc1ccc(C(C)(C)c2ccc(OCc3ccnc(N4CC5(COC5)C4)n3)cc2)cc1)Nc1ccc2c(c1)C(=O)N(C1CCC(=O)NC1=O)C2=O (stereo not drawn) | 11 to 100 nM
CC(C)(c1ccc(Oc2cnc(C#N)cn2)cc1)c1ccc(O[C@H]2C[C@H](Nc3ccc4c(c3)C(=O)N(C3CCC(=O)NC3=O)C4=O)C2)cc1 (stereo partly drawn) | 11 to 100 nM

We next turn to a different compound, shown below.
For CC(C)(c1ccc(Oc2ccnc(N3CC4(COC4)C3)n2)cc1)c1ccc(O[C@H]2C[C@H](Nc3ccc4c(c3)C(=O)N(C3CCC(=O)NC3=O)C4=O)C2)cc1 (stereo partly drawn) , write its DC50.
< 10 nM

---

I'd appreciate it if you could supply DC50 values for the items below.
Target: androgen receptor (AR) splicing variant AR-v7 (Homo sapiens)
Construct: The degradation activity of compounds on AR-v7 in 22RV1 cells; host or cells: 22RV1 cells
Experiment: Degradation activity on androgen receptor splicing variant AR-v7 in 22RV1 cells (ELISA)
Type: cell-based
Conditions: AR-v7 degradation in 22RV1 cells, 48 h, class symbols

Examples with their reported DC50 follow.
O=C1CCC(N2C(=O)c3ccc(N[C@H]4C[C@H](Oc5ccc(C6(c7ccc(Oc8ccc(-n9ccnn9)nn8)cc7)CC6)cc5)C4)cc3C2=O)C(=O)N1 (some centres unmarked) | 11 to 100 nM
CC(C)(c1ccc(OCCCNc2ccc3c(c2)C(=O)N(C2CCC(=O)NC2=O)C3=O)cc1)c1ccc(OCc2ccnc(-n3ccnc3)n2)cc1 (centres unmarked) | 11 to 100 nM
CC(C)(c1ccc(OCc2ccnc(N3CC4(COC4)C3)n2)c(F)c1)c1ccc(O[C@H]2C[C@@H](Nc3ccc4c(c3)C(=O)N(C3CCC(=O)NC3=O)C4=O)C2)c(F)c1 (some centres unmarked) | < 10 nM

Could you report DC50 for every entry in the following list?
1. CC(C)(c1ccc(OCc2cccc(-c3nnco3)n2)cc1)c1ccc(O[C@H]2C[C@H](Nc3ccc4c(c3)C(=O)N(C3CCC(=O)NC3=O)C4=O)C2)cc1 (some centres unmarked)
2. CCN1CC(Oc2nccc(COc3ccc(C(C)(C)c4ccc(O[C@H]5C[C@@H](Nc6ccc7c(c6)C(=O)N(C6CCC(=O)NC6=O)C7=O)C5)cc4)cc3)n2)C1 (some centres unmarked)

1. < 10 nM
2. 11 to 100 nM

Your task in this section: give DC50 for each listed record.
1. Cc1noc(-c2cccc(COc3ccc(C(C)(C)c4ccc(O[C@H]5C[C@@H](Nc6ccc7c(c6)C(=O)N(C6CCC(=O)NC6=O)C7=O)C5)cc4)cc3)n2)n1 (some centres unmarked)
2. CC(C)(c1ccc(Oc2ccc(-n3nccn3)cc2)cc1)c1ccc(O[C@H]2C[C@H](Nc3ccc4c(c3)C(=O)N(C3CCC(=O)NC3=O)C4=O)C2)cc1 (some centres unmarked)
3. CC(C)(c1ccc(OCc2ccnc(N3CCN(CCO)CC3)n2)cc1)c1ccc(O[C@H]2C[C@@H](Nc3ccc4c(c3)C(=O)N(C3CCC(=O)NC3=O)C4=O)C2)cc1 (some centres unmarked)
4. CC(=O)c1nccc(COc2ccc(C(C)(C)c3ccc(OC[C@@H]4CCCN4c4ccc5c(c4)C(=O)N(C4CCC(=O)NC4=O)C5=O)cc3)cc2)n1 (some centres unmarked)
5. Cc1nc(-c2cnc(Oc3ccc(C(C)(C)c4ccc(O[C@H]5C[C@@H](Nc6ccc7c(c6)C(=O)N(C6CCC(=O)NC6=O)C7=O)C5)cc4)cc3)nc2)no1 (some centres unmarked)

1. 11 to 100 nM
2. 11 to 100 nM
3. 11 to 100 nM
4. 101 to 1000 nM
5. 11 to 100 nM

Provide measured DC50 value, entry: CC(C)(c1ccc(Oc2ccc(-n3nccn3)nc2)cc1)c1ccc(O[C@H]2C[C@@H](Nc3ccc4c(c3)C(=O)N(C3CCC(=O)NC3=O)C4=O)C2)cc1 (some centres unmarked)
11 to 100 nM

Data provenance is patent US20250051347A1.
